- experimental.system: GORASP1, Q9BQQ3
- Sequence (Q9BQQ3 1-208): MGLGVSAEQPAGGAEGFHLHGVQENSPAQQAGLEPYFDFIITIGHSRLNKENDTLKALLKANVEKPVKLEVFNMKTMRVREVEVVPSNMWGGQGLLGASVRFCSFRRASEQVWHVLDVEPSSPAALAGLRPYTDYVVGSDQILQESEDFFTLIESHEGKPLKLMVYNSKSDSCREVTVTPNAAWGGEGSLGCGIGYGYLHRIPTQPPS
- experimental.details: holdup assay
- Design: key: below the threshold = too weak to quantify, mostly under pKd 3.1 to 4
- study.conditions: plain residues with an end cap or a label only (N-terminal biotin on a linker: ttds)
reported.metric: pKd

{"columns": ["binder", "pKd"],
 "data": [
  ["GRLLGLETNV [ARHGEF26, Q96DR7]", "below the threshold"],
  ["PSRDRKETSI [RALBP1, Q15311]", 3.38],
  ["SSIDLWETAL [SLC15A5, A6NIM6]", 4.02],
  ["SRSRRRETAL [HPV33-E6, P06427]", "below the threshold"],
  ["FVETQHQTQV [FAT3, Q8TDW7]", "below the threshold"]
]}

Entry PPRQRSETQV [HPV82-E6, Q9IR59] — recorded pKd = below the threshold

Entry NPDALPETLV [ARHGAP6, O43182] — recorded pKd = below the threshold

Entry SHSSKGETAV [FZD7, O75084] — recorded pKd = 3.48
